These data points were gathered from patent US20130288983A1.

system_tested: T1, Activin A (Homo sapiens (Human), UniProt P08476 311-426)
T1 sequence: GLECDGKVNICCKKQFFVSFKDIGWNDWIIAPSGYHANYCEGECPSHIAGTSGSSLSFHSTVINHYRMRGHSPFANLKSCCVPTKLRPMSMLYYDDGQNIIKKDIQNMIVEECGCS
assay_protocol: Biacore SPR grade, COS transient conditioned media
Give measured normalized SPR signal for each item. Keep answers brief.

Prompt line: GET /values?readout=normalized SPR signal&item= ActRIIB-IgG1 Fc R40I, linker GGGGS (Fc fusion, Tested from conditioned media) SGRGEAETRECIYYNANWELEITNQSGLERCEGEQDKRLHCYASWRNSSGTIELVKKGCWLDDFNCYDRQECVATEENPQVYFCCCEGNFCNERFTHLPEAGGPEVTYEPPPTAPTGGGGSAPELLGGPSVFLFPPKPKDILMISRTPEVTCVVVDVSHEDPEVKFNWYVGGVEVHNAKTKPREEQYNSTYRVVSVLTVLHQDWLNGKEYKCKVSNKALPAPIEKTISKAKGQPREPQVYTLPPSRDELTKNQVSLTCLVKGFYPSDIAVEWESNGQPENNYKTTPPVLDSDGSFFLYSKLTVDKSRWQQGNVFSCSVMHEALHNHYTQKSLSLSPGK
Response line: < 5 ru

Prompt line: GET /values?readout=normalized SPR signal&item= ActRIIB-IgG1 Fc E28D, linker GGGGS (Fc fusion, Tested from conditioned media) SGRGEAETRDCIYYNANWELERTNQSGLERCEGEQDKRLHCYASWRNSSGTIELVKKGCWLDDFNCYDRQECVATEENPQVYFCCCEGNFCNERFTHLPEAGGPEVTYEPPPTAPTGGGGSAPELLGGPSVFLFPPKPKDILMISRTPEVTCVVVDVSHEDPEVKFNWYVGGVEVHNAKTKPREEQYNSTYRVVSVLTVLHQDWLNGKEYKCKVSNKALPAPIEKTISKAKGQPREPQVYTLPPSRDELTKNQVSLTCLVKGFYPSDIAVEWESNGQPENNYKTTPPVLDSDGSFFLYSKLTVDKSRWQQGNVFSCSVMHEALHNHYTQKSLSLSPGK
Response line: < 5 ru

Prompt line: GET /values?readout=normalized SPR signal&item= ActRIIB-IgG1 Fc E28C, linker GGGGS (Fc fusion, Tested from conditioned media) SGRGEAETRCCIYYNANWELERTNQSGLERCEGEQDKRLHCYASWRNSSGTIELVKKGCWLDDFNCYDRQECVATEENPQVYFCCCEGNFCNERFTHLPEAGGPEVTYEPPPTAPTGGGGSAPELLGGPSVFLFPPKPKDILMISRTPEVTCVVVDVSHEDPEVKFNWYVGGVEVHNAKTKPREEQYNSTYRVVSVLTVLHQDWLNGKEYKCKVSNKALPAPIEKTISKAKGQPREPQVYTLPPSRDELTKNQVSLTCLVKGFYPSDIAVEWESNGQPENNYKTTPPVLDSDGSFFLYSKLTVDKSRWQQGNVFSCSVMHEALHNHYTQKSLSLSPGK
Response line: < 5 ru

Prompt line: GET /values?readout=normalized SPR signal&item= ActRIIB-IgG1 Fc R40Y, linker GGGGS (Fc fusion, Tested from conditioned media) SGRGEAETRECIYYNANWELEYTNQSGLERCEGEQDKRLHCYASWRNSSGTIELVKKGCWLDDFNCYDRQECVATEENPQVYFCCCEGNFCNERFTHLPEAGGPEVTYEPPPTAPTGGGGSAPELLGGPSVFLFPPKPKDILMISRTPEVTCVVVDVSHEDPEVKFNWYVGGVEVHNAKTKPREEQYNSTYRVVSVLTVLHQDWLNGKEYKCKVSNKALPAPIEKTISKAKGQPREPQVYTLPPSRDELTKNQVSLTCLVKGFYPSDIAVEWESNGQPENNYKTTPPVLDSDGSFFLYSKLTVDKSRWQQGNVFSCSVMHEALHNHYTQKSLSLSPGK
Response line: < 5 ru

Prompt line: GET /values?readout=normalized SPR signal&item= ActRIIB-IgG1 Fc R40C, linker GGGGS (Fc fusion, Tested from conditioned media) SGRGEAETRECIYYNANWELECTNQSGLERCEGEQDKRLHCYASWRNSSGTIELVKKGCWLDDFNCYDRQECVATEENPQVYFCCCEGNFCNERFTHLPEAGGPEVTYEPPPTAPTGGGGSAPELLGGPSVFLFPPKPKDILMISRTPEVTCVVVDVSHEDPEVKFNWYVGGVEVHNAKTKPREEQYNSTYRVVSVLTVLHQDWLNGKEYKCKVSNKALPAPIEKTISKAKGQPREPQVYTLPPSRDELTKNQVSLTCLVKGFYPSDIAVEWESNGQPENNYKTTPPVLDSDGSFFLYSKLTVDKSRWQQGNVFSCSVMHEALHNHYTQKSLSLSPGK
Response line: < 5 ru

Prompt line: GET /values?readout=normalized SPR signal&item= ActRIIB-IgG1 Fc R40S, linker GGGGS (Fc fusion, Tested from conditioned media) SGRGEAETRECIYYNANWELESTNQSGLERCEGEQDKRLHCYASWRNSSGTIELVKKGCWLDDFNCYDRQECVATEENPQVYFCCCEGNFCNERFTHLPEAGGPEVTYEPPPTAPTGGGGSAPELLGGPSVFLFPPKPKDILMISRTPEVTCVVVDVSHEDPEVKFNWYVGGVEVHNAKTKPREEQYNSTYRVVSVLTVLHQDWLNGKEYKCKVSNKALPAPIEKTISKAKGQPREPQVYTLPPSRDELTKNQVSLTCLVKGFYPSDIAVEWESNGQPENNYKTTPPVLDSDGSFFLYSKLTVDKSRWQQGNVFSCSVMHEALHNHYTQKSLSLSPGK
Response line: < 5 ru

Prompt line: GET /values?readout=normalized SPR signal&item= ActRIIB-IgG1 Fc R40L, linker GGGGS (Fc fusion, Tested from conditioned media) SGRGEAETRECIYYNANWELELTNQSGLERCEGEQDKRLHCYASWRNSSGTIELVKKGCWLDDFNCYDRQECVATEENPQVYFCCCEGNFCNERFTHLPEAGGPEVTYEPPPTAPTGGGGSAPELLGGPSVFLFPPKPKDILMISRTPEVTCVVVDVSHEDPEVKFNWYVGGVEVHNAKTKPREEQYNSTYRVVSVLTVLHQDWLNGKEYKCKVSNKALPAPIEKTISKAKGQPREPQVYTLPPSRDELTKNQVSLTCLVKGFYPSDIAVEWESNGQPENNYKTTPPVLDSDGSFFLYSKLTVDKSRWQQGNVFSCSVMHEALHNHYTQKSLSLSPGK
Response line: < 5 ru
